Exercise: state measured Reduction for each of the compounds provided.
# System: Rattus norvegicus
# test_method_notes: Percent reduction in Spontaneously hypertensive rat blood pressure after 1 h of 3 mg/kg, po administration
# Assay type: functional
Just the number please, in %, no unit attached.

-- ask Item under review: `COc1cc2nc(N3CCCCC3)cc(N)c2cc1OC` . Reported Reduction?
-- reply 6

-- ask Item under review: `CCCNC(=O)N1CCN(c2cc(N)c3cc(OC)c(OC)cc3n2)CC1` . Reported Reduction?
-- reply 3

-- ask Item under review: `COc1cc2nc(N3CCN(C(=O)Nc4ccccc4)CC3)cc(N)c2cc1OC` . Reported Reduction?
-- reply 20
